Reference source: PubChem BioAssay AID493185

Experiment: Counterscreen for Identifying a Potential Treatment of Ataxia-Telangiectasia: Hit Validation
Settings: cell-free AlphaLISA/AlphaScreen artifact counterscreen, PBS only, no cells; series mostly up to 76.9 µM
Active and inactive are the calls of the source. Calls come from the whole dose curve; as a rule, active = well fitted activation curve with a large enough effect; inconclusive = small, poorly fitted or top-dose-only effect; inactive = no such curve, though single readings can be large or run the other way.
Labels: True = active, False = inactive

[
  {
    "Compound": "CCNC(=S)N(CCc1c(C)[nH]c2ccccc12)Cc1cccnc1",
    "Label class": "False"
  },
  {
    "Compound": "c1ccc2c(c1)nc(Nc1ccc(N3CCCCC3)cc1)c1nncn12",
    "Label class": "False"
  },
  {
    "Compound": "CCCc1ccc(S(=O)(=O)Nc2ccc(C)c(NS(C)(=O)=O)c2)cc1",
    "Label class": "False"
  },
  {
    "Compound": "Cc1cc2nc3ccc(=[N+](C)C)cc-3sc2cc1N",
    "Label class": "True"
  },
  {
    "Compound": "CC(C)CC(=O)Nc1c2c(nn1-c1cccc(Cl)c1)CS(=O)C2 (stereo unspecified)",
    "Label class": "False"
  },
  {
    "Compound": "O=C(NC(=O)c1c(F)cccc1F)Nc1ccccc1SC(F)F",
    "Label class": "False"
  },
  {
    "Compound": "O=C1C(Cl)=C(Nc2ccccc2)C(=O)c2ccccc21",
    "Label class": "False"
  },
  {
    "Compound": "S=c1[nH]nc(C2CCCCC2)n1/N=C/c1ccc(Br)cc1",
    "Label class": "False"
  },
  {
    "Compound": "Cc1cccc(NC(=O)/C(C#N)=C/c2ccc(F)cc2)n1",
    "Label class": "False"
  },
  {
    "Compound": "CCN1C/C(=C/c2sccc2C)c2nc3ccccc3c(C(=O)O)c2C1",
    "Label class": "False"
  },
  {
    "Compound": "CCOC(=O)C1CCN(C(=O)c2cc3cc(Cl)ccc3[nH]2)CC1",
    "Label class": "False"
  },
  {
    "Compound": "COc1ccccc1N1CN(CCc2ccccc2)CNC1=S",
    "Label class": "False"
  },
  {
    "Compound": "Cc1nc(SCC(=O)Nc2cc(C(N)=O)cc(C(N)=O)c2)c2c(C)c(C)sc2n1",
    "Label class": "True"
  },
  {
    "Compound": "CC1=NN(C(C#N)c2ccc([N+](=O)[O-])cc2)C(C)(C)C1 (stereo unspecified)",
    "Label class": "False"
  },
  {
    "Compound": "N#C/C(=C/c1ccc(F)cc1)C(N)=S",
    "Label class": "False"
  },
  {
    "Compound": "O=c1c(-c2ccc(Cl)cc2)c[nH]n1-c1ccccc1",
    "Label class": "False"
  },
  {
    "Compound": "O=C(CNCc1cccs1)Nc1ccc(OC(F)(F)F)cc1",
    "Label class": "False"
  },
  {
    "Compound": "COC(=O)Cc1ccc(NC(=S)NCCSc2ccc(Cl)cc2)cc1",
    "Label class": "False"
  },
  {
    "Compound": "COc1ccc(CCNC2=NCCS2)cc1OC",
    "Label class": "False"
  },
  {
    "Compound": "Cc1ccc(C)c(-n2c(SCC(=O)NC(C(=O)O)C(C)C)nnc2-c2cccc(Cl)c2)c1 (stereo unspecified)",
    "Label class": "False"
  },
  {
    "Compound": "CC(C)(CO)NC(=O)c1ccc2c(c1)C(=O)c1ccccc1-2",
    "Label class": "False"
  },
  {
    "Compound": "CCOC(=O)N1CCN(c2nc(N(c3ccccc3)c3ccccc3)nc(-n3ccnc3)n2)CC1",
    "Label class": "False"
  },
  {
    "Compound": "CC(C)(C=O)C1=CC(=O)c2ccccc2C1=O",
    "Label class": "False"
  },
  {
    "Compound": "CCn1c2ccccc2c2c3ncc4cccn4c3ccc21",
    "Label class": "True"
  },
  {
    "Compound": "CN(C)c1cc(Nc2ccc(O)cc2)c([N+](=O)[O-])c2nonc12",
    "Label class": "False"
  },
  {
    "Compound": "CC(C)CN(CC(C)C)C(=O)c1cc2c(=O)n3ccccc3nc2s1",
    "Label class": "False"
  },
  {
    "Compound": "S=c1[nH]nc(COc2ccccc2)n1/N=C/c1ccccc1Cl",
    "Label class": "False"
  },
  {
    "Compound": "Cc1nc(Nc2ccc(Cl)cc2)c2oc3ccccc3c2n1",
    "Label class": "False"
  },
  {
    "Compound": "Cc1ccc(C(=O)N/C(=C\\c2ccco2)C(=O)NC2CCS(=O)(=O)C2)cc1 (stereo unspecified)",
    "Label class": "False"
  },
  {
    "Compound": "O=C(Nc1ccc([N+](=O)[O-])cc1)c1cc2ccccc2nc1Cl",
    "Label class": "False"
  },
  {
    "Compound": "NC(=O)c1cc2ccccc2o/c1=N/NC(=O)c1cccc(F)c1",
    "Label class": "False"
  },
  {
    "Compound": "CCC(C)Nc1nc(N)c([N+](=O)[O-])c(NCCO)n1 (stereo unspecified)",
    "Label class": "False"
  },
  {
    "Compound": "N=c1ccn(Cc2ccc([N+](=O)[O-])cc2)cc1",
    "Label class": "False"
  },
  {
    "Compound": "N#Cc1c2c(c(-n3cnc4ccccc43)n3c1nc1ccccc13)CCC2",
    "Label class": "False"
  },
  {
    "Compound": "Cc1ccc(OC(=O)c2cc(C)nn2C(C)(C)C)cc1",
    "Label class": "False"
  },
  {
    "Compound": "COC(=O)CCc1c(C)c(C(=O)c2cc(OC)c(OC)c(OC)c2)c2ccccn12",
    "Label class": "False"
  },
  {
    "Compound": "Cc1oc2c(c(C)cc3oc(=O)c(CC(=O)NCC(=O)NCC(=O)O)c(C)c32)c1C",
    "Label class": "False"
  },
  {
    "Compound": "COc1ccc(-c2csc(-c3ccc(O)cc3)n2)cc1",
    "Label class": "False"
  },
  {
    "Compound": "Cc1nc2sc(C(N)=O)c(N)c2c2c1CCCC2",
    "Label class": "False"
  },
  {
    "Compound": "C[C@@H]1Cc2c(O)c(O)cc(O)c2C(=O)O1",
    "Label class": "False"
  },
  {
    "Compound": "CNC(=S)N(CCc1c(C)[nH]c2ccc(Cl)cc12)Cc1cccnc1",
    "Label class": "False"
  }
]
